The reported measurements were obtained from patent US11254668B2.

Kindly supply the reported pIC50 values for the records listed here.
# TARGET_DESC: JAK1 (Homo sapiens (Human))
# Sequence (P23458 875-1153): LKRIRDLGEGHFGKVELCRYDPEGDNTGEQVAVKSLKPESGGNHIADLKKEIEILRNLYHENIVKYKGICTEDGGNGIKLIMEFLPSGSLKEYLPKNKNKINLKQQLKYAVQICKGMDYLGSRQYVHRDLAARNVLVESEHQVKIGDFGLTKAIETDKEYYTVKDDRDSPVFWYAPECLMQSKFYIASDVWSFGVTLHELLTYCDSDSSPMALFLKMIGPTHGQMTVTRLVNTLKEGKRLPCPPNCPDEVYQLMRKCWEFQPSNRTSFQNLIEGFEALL
# EXPERIMENT_NOTES: JAK Caliper Enzyme Assay at 1 mM ATP, JAK1
# Assay type: biochemical
pIC50: −log10 of the molar value.

{"columns": ["COMPOUND", "pIC50"],
 "data": [
  ["Cc1cc(-c2cc(-c3cnn(C4(CC#N)CN(S(C)(=O)=O)C4)n3)c3cccnc3c2)ccn1", "< 5.00"],
  ["CCN1CC(CC#N)(n2ccc(-c3nc(N4CCOCC4)cc4ncccc34)n2)C1", "< 5.00"],
  ["CS(=O)(=O)N1CC(CC#N)(n2ccc(-c3nc(-c4cncnc4)cc4ncccc34)n2)C1", "< 5.00"],
  ["N#CC[C@]1(n2ncc(-c3cc(-c4cccc(C(N)=O)n4)cc4ncccc34)n2)C[C@H](C#N)C1 [Example 349]", 6.13],
  ["Cc1cncc(-c2cc3ncccc3c(-c3ccn(C4(CC#N)CN(CC(F)(F)F)C4)n3)n2)c1", "< 5.00"]
]}

Q: JAK1 (Homo sapiens (Human)) / pIC50 / Cn1ncc(-c2cc(-c3cnn([C@]4(CC#N)C[C@@H](C#N)C4)n3)c3cccnc3c2)c1C(N)=O : value?
A: < 5.00

###

# TARGET_DESC: UniProt:O60674
# Sequence (O60674 849-1124): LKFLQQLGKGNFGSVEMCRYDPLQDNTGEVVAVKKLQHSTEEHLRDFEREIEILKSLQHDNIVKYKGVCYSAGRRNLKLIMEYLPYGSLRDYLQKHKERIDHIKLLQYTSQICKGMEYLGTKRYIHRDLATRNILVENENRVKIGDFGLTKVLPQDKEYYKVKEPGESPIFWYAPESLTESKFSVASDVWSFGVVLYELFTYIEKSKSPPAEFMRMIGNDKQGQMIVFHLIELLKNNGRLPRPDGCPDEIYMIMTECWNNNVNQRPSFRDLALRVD
# EXPERIMENT_NOTES: JAK Caliper Enzyme Assay at 1 mM ATP, JAK2
# Assay type: biochemical
Lab note - cut at 0.4 µM for IC50: Fulfilled if strictly below, Not fulfilled if not.

See these solved cases before continuing.
{"columns": ["COMPOUND", "GROUP"],
 "data": [
  ["Cc1ncc(-c2cc3ncccc3c(-c3ccn(C4(CC#N)CN(CC(F)(F)F)C4)n3)n2)n1C", "Not fulfilled"],
  ["N#CCC1(n2ncc(-c3cc(-c4cc(C(N)=O)ccn4)cc4ncccc34)n2)CC(C#N)C1 (stereo not drawn)", "Not fulfilled"],
  ["N#CCC1(n2ccc(-c3nc(-c4cncc(F)c4)cc4ncccc34)n2)CN(CC(F)(F)F)C1", "Not fulfilled"],
  ["Cc1cc(-c2cc3ncccc3c(-c3ccn(C4(CC#N)CN(CC(F)(F)F)C4)n3)n2)c[nH]c1=O", "Not fulfilled"],
  ["N#CCC1(n2ncc(-c3cc(-c4ccc(C(N)=O)cn4)cc4ncccc34)n2)CC(C#N)C1 (stereo not drawn) [Example 352]", "Fulfilled"],
  ["N#CC[C@]1(n2ccc(-c3nc(-c4cc(N)cnn4)cc4ncccc34)n2)C[C@H](C#N)C1", "Not fulfilled"]
]}

Q: Just wondering, is IC50 of CNS(=O)(=O)N1CC(CC#N)(n2ccc(-c3nc(-c4cnn(C)c4)cc4ncccc34)n2)C1 below 0.4 µM?
A: Fulfilled

Q: Just wondering, is IC50 of Cc1cc(-c2cc3ncccc3c(-c3ccn([C@]4(CC#N)C[C@H](C#N)C4)n3)n2)cc(N)n1 below 0.4 µM?
A: Fulfilled

Q: Just wondering, is IC50 of N#CC[C@]1(n2ncc(-c3cc(-c4cccnc4N)cc4ncccc34)n2)C[C@@H](C#N)C1 below 0.4 µM?
A: Not fulfilled

###

# TARGET_DESC: UniProt:P29597
# Sequence (P29597 897-1176): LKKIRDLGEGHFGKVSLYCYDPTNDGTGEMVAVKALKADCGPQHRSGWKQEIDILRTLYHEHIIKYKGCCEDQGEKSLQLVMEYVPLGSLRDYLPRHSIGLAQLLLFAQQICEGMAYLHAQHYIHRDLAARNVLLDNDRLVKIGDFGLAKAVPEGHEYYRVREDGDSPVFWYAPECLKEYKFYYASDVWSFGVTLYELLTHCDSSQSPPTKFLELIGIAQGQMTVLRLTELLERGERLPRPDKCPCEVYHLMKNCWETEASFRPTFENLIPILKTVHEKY
# EXPERIMENT_NOTES: JAK Caliper Enzyme Assay at 1 mM ATP, TYK2
# Assay type: biochemical
Lab note - cut at 0.7 µM for IC50: met if strictly below, not met if not.

See these solved cases before continuing.
{"columns": ["COMPOUND", "TARGET_DESC", "GROUP"],
 "data": [
  ["CNC(=O)C1CC(CC#N)(n2ccc(-c3nc(-c4cc[nH]n4)cc4ncccc34)n2)C1 (centres unmarked)", "UniProt:P29597", "not met"],
  ["CS(=O)(=O)N1CC(CC#N)(n2ccc(-c3nc(-c4cnn(C5COC5)c4)cc4ncccc34)n2)C1", "UniProt:P29597", "met"],
  ["CS(=O)(=O)N1CC(CC#N)(n2ccc(-c3cc(-c4ccc(=O)[nH]c4)cc4ncccc34)n2)C1", "UniProt:P29597", "met"]
]}

Q: Just wondering, is IC50 of CS(=O)(=O)N1CC(CC#N)(n2ccc(-c3nc(-c4cnn(C(CO)CCl)c4)cc4ncccc34)n2)C1 (centres unmarked) below 0.7 µM?
A: met

Q: Just wondering, is IC50 of N#CCC1(n2ccc(-c3nccc4ncccc34)n2)CN(CC(F)(F)F)C1 below 0.7 µM?
A: not met

Q: Just wondering, is IC50 of COc1ncc(-c2cc3ncccc3c(-c3ccn(C4(CC#N)CN(CC(F)(F)F)C4)n3)n2)cn1 below 0.7 µM?
A: not met

Q: Just wondering, is IC50 of N#CCC1(n2ccc(-c3nc(-c4cnn(C5CNC5)c4)cc4ncccc34)n2)CN(CC(F)(F)F)C1 below 0.7 µM?
A: met

Q: Just wondering, is IC50 of C[C@]1(C#N)C[C@](CC#N)(n2ccc(-c3nc(-c4ccnc(N)c4)cc4ncccc34)n2)C1 below 0.7 µM?
A: met

Q: Just wondering, is IC50 of N#CCC1(n2ccc(-c3nc(-c4ccc(=O)[nH]c4)cc4ncccc34)n2)CN(S(=O)(=O)C2CC2)C1 below 0.7 µM?
A: met

Q: Just wondering, is IC50 of Cn1nccc1-c1cc(-c2cnn(C3(CC#N)CN(S(C)(=O)=O)C3)n2)c2cccnc2c1 below 0.7 µM?
A: not met

Q: Just wondering, is IC50 of Cn1cc(-c2cc3ncccc3c(-c3ccn([C@]4(CC#N)C[C@@H](C#N)C4)n3)n2)c(N)n1 below 0.7 µM?
A: met
